experiment: Toxicity liver stage against HepG2, at 10uM; type: cell-based; set-up: test concentration 10 uM, cell line HepG2-A16-CD81EGFP; details: human, HepG2-A16-CD81EGFP cells; read-out: INHIBITION

COMPOUND	cytotoxicity at 10 µM
O=C(COc1ccccc1)NCCNC(=O)c1scnc1Cl	-4.83%
NC(=O)c1cn2cc(-c3ccccc3Cl)n(CC3CC3)c(=O)c2n1	-1.35%
C[S+]([O-])c1ccc(NC(=O)CC2=CCCCC2)cc1 (stereo unspecified)	0.304%
CC(c1ccccc1F)N1CCN(C(=O)Cc2ccncc2)CC1 (stereo unspecified)	-2.94%
COc1ccccc1-n1cc(CN2CCN(C)[C@@H]3CS(=O)(=O)C[C@@H]32)cn1	14.5%
COc1cc(CNCc2ccc(C(C)O)cc2)cc2c1OCO2 (stereo unspecified)	-9.78%
CCCc1n[nH]c(C2CN(C(=O)CCn3cc(C)cn3)CCO2)n1 (stereo unspecified)	10.3%
COc1ccccc1C(=O)N1CC(=O)N(CC2CC2)CC(O)C1 (stereo unspecified)	5.99%
CC(C)[C@]1(O)CN(C(=O)COCC(N)=O)C[C@H]1C	7.37%
COc1ccc2c(c1)OCC(Cc1cc(N3CCCC3)cnn1)C2 (stereo unspecified)	-18.1%
NC(=O)CCC(=O)N1CCc2[nH]nc(-c3ccc4c(c3)OCO4)c2C1	-142%
Fc1ccc(-c2cnc(CN3CCCC3Cn3cccn3)o2)cc1 (stereo unspecified)	-7.52%
CC(C)(O)CSCCNCc1ccc(Cl)c2cccnc12	-8.87%
CNC(=O)[C@@H]1C[C@@H](N)CN1C(=O)CCSCc1ccccc1	6.7%
O=C(Nc1cc2c(cc1Br)OCCO2)NC1CCS(=O)(=O)C1 (stereo unspecified)	-9.82%
Cc1ccc(CN2C[C@@H]3[C@@H](C2)OCC(=O)N3Cc2ccncc2)s1	-67.7%
CC(C)NC(=O)C(c1ccccc1)N1CCn2c(nnc2C2CC2)C1 (stereo unspecified)	-3.3%
Cc1cnn(CC2CN(CC(=O)N3CCc4ccccc43)CCO2)c1 (stereo unspecified)	-0.77%
CC(NC(=O)C1CN(c2ncnc3c2nnn3C)C1)c1ccccc1 (stereo unspecified)	2.8%
NC(=O)c1ccc(CN2CCC(N3CCCCC3)CC2)cc1	-7.55%
CN(Cc1ccc(F)cc1C#N)CC(F)(F)F	4.28%
Cc1cc(CNC(=O)NCCCC(=O)N2CCc3ccccc32)no1	5.02%
Cc1ccc(C2COCCN2C(=O)c2ccc(C#N)cc2)o1 (stereo unspecified)	-5.08%
CN(C)CCN1CC2(CCN(C(=O)c3cnccn3)CC2)OC1=O	9%
CC(C)(C)n1ccc(C(=O)N2CCCC(c3ccc(C(=O)O)cc3)C2)c1 (stereo unspecified)	1.31%
Cc1nc(N2CCCC2)nc2c1CCN(Cc1ccco1)CC2	-6.52%
C[C@@H]1CN(C(=O)CCc2cnn(C)c2)C[C@@]1(O)C1CCC1	-11.4%
CC(C)=CCCC(C)CN1CCC(n2cc(CO)nn2)CC1 (stereo unspecified)	-6.37%
Cc1nc(C(=O)N2CC[C@@]3(C[C@@H](NS(C)(=O)=O)CCO3)C2)cs1	-66%
COCCN1CCC2(CC1)CC(NCc1cncn1C)c1ccccc12 (stereo unspecified)	-8.13%
Cc1noc(CS(=O)(=O)C/C=C/c2ccccc2)n1	-10.9%
Cc1ccc(C2COCCN2C(=O)c2ccc(N(C)C)cc2)o1 (stereo unspecified)	4%
CCn1cc(CN2CCN(CC(O)c3ccc(C)cc3C)CC2)c(C)n1 (stereo unspecified)	-0.664%
CCCc1ccc(CN2CCN(C(=O)C(C)C)[C@@H]3CS(=O)(=O)C[C@@H]32)o1	5.39%
CN(C)S(=O)(=O)N1CCN(C(=O)c2cc(-c3ccc(Br)s3)n[nH]2)CC1	-2.66%
CCN(CC)C(CNC(=O)c1ccc(S(=O)(=O)NC)cc1)c1ccco1 (stereo unspecified)	-13.5%
Cc1ccsc1C(=O)N1CCc2ncc(Cn3cccn3)n2CC1	-108%
CC(NCC1CCN(CCO)CC1)c1ccc(OC(F)(F)F)cc1 (stereo unspecified)	-15.1%
CNC(=O)C(C)(C)CNC(=O)Nc1cc(C)ccn1	11.7%
CN1CCOCC2(CCCN(C(=O)Cc3ccncc3)C2)C1 (stereo unspecified)	-84.6%
Cc1c(NC(=O)CN2CCC(Oc3cnccn3)CC2)cnn1C	-4.68%
O=C(CC1CCc2ccccc21)N1CCC(O)(c2cccnc2)CC1 (stereo unspecified)	7.19%
Cc1ccc(S(=O)(=O)N2C[C@H]3C[C@H](NC(=O)c4ccnn4C)[C@H]3C2)cc1	85.2%
Cc1nc2cc(C(=O)N3CCn4c(nnc4C4CC4)C3)ccc2s1	-1.41%
COCCN1CCC(CN(C)c2nc3c(s2)c(C)nn3C)CC1	0.992%
O=C(NCc1ccccc1)N1CCC2(CC(=O)N(c3ccsc3)C2)C1 (stereo unspecified)	-9.64%
